test system: Mite; conditions: mite on okra plants, green house; dose 1 ml/gm/lit. spray; 48 hrs; corrected for water control
Give % Corrected Mortality at 48 Hrs. for every item shown.
Answers are plain numbers, in %.

Some entries whose results are on file:
[[record]]
compound = "CC1=CCC2CC1C2(C)C (stereo not drawn)"
assay_system = "Mite"
value_observed = 28.95

[[record]]
compound = "O=C(/C=C/C=C/c1ccc2c(c1)OCO2)N1CCCCC1"
assay_system = "Mite"
value_observed = 57.89

[[record]]
compound = "CC12CCC(CC1)C(C)(C)O2"
assay_system = "Mite"
value_observed = 18.42

[[record]]
compound = "C/C=C\\c1cc(OC)c(OC)cc1OC"
assay_system = "Mite"
value_observed = 18.42


# batch: return % Corrected Mortality at 48 Hrs. for each of the 2 compounds below
1. C=C1C2CCC(C2)C1(C)C (stereo not drawn)
2. Cc1ccc(C(C)C)c(O)c1

36.84
60.53
